- target_or_test_system: T1, Fab 1621
- T1 construct: Mouse Fab, kappa light chain
- T1 sequence (VH, as listed by the source limits assumed, chain 1 of 2): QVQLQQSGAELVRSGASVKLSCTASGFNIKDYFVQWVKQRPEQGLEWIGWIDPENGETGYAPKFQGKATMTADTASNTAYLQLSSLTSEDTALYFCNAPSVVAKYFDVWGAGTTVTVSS
- T1 sequence (VL, as listed by the source limits assumed, chain 2 of 2): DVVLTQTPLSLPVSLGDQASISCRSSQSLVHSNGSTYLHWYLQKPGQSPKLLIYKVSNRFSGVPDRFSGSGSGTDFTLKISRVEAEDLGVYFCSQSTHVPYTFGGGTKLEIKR
- measurement_description: competitive ELISA, Fab 1621 on coated BSA-hGhrelin; compound 5 ug/ml
No end group written: not given here. *: point of attachment. Octanoyl = CCCCCCCC(=O)*
measurement_kind: Ave. OD (OD)

GSSFLSPE (also called hGhrelin (1-8 desacyl)) [Ghrelin (1-8, desacyl)] = 1.26
HQRVQQRKESKKPPAKLQPR (also called hGhrelin (9-28)) [Ghrelin (9-28)] = 1.02
GSSFLSPEHQKAQQRKESKKPPAKLQPR (peptide, UniProt Q9QYH7 24-51, looked up, also: acylated (position and acyl group not given here), mature; The UniProt entry is the precursor; the assay used the ghrelin peptide; also called rGhrelin) [full-length, acylated rat ghrelin] = 0.429
GSS(Octanoyl)FLSPE (also called hGhrelin (1-8 acyl); Human 1-8 acyl) [Ghrelin (1-8 acyl)] = 1.22
GSSFLSPEHQRVQQRKESKKPPAKLQPX (octanoyl group on the serine at position 3, the 1-28 form has Arg at 28; also called hGhrelin; acylated hGhrelin) [full-length human ghrelin (1-28) acylated with an octanoyl group on the serine at position 3] = 0.043

Values from patent US20060233788A1
